- Assayed system: CPSF160FL;WDR33 M1-K410;CPSF30FL;Fip1FL (Homo sapiens;Homo sapiens;Homo …, UniProt Q10570;Q9C0J8;O95639-3;Q6UN15-4 1-1443;1-410;1-243;1-378, |||)
- Sequence (Q10570 whole entry, chain 1 of 4): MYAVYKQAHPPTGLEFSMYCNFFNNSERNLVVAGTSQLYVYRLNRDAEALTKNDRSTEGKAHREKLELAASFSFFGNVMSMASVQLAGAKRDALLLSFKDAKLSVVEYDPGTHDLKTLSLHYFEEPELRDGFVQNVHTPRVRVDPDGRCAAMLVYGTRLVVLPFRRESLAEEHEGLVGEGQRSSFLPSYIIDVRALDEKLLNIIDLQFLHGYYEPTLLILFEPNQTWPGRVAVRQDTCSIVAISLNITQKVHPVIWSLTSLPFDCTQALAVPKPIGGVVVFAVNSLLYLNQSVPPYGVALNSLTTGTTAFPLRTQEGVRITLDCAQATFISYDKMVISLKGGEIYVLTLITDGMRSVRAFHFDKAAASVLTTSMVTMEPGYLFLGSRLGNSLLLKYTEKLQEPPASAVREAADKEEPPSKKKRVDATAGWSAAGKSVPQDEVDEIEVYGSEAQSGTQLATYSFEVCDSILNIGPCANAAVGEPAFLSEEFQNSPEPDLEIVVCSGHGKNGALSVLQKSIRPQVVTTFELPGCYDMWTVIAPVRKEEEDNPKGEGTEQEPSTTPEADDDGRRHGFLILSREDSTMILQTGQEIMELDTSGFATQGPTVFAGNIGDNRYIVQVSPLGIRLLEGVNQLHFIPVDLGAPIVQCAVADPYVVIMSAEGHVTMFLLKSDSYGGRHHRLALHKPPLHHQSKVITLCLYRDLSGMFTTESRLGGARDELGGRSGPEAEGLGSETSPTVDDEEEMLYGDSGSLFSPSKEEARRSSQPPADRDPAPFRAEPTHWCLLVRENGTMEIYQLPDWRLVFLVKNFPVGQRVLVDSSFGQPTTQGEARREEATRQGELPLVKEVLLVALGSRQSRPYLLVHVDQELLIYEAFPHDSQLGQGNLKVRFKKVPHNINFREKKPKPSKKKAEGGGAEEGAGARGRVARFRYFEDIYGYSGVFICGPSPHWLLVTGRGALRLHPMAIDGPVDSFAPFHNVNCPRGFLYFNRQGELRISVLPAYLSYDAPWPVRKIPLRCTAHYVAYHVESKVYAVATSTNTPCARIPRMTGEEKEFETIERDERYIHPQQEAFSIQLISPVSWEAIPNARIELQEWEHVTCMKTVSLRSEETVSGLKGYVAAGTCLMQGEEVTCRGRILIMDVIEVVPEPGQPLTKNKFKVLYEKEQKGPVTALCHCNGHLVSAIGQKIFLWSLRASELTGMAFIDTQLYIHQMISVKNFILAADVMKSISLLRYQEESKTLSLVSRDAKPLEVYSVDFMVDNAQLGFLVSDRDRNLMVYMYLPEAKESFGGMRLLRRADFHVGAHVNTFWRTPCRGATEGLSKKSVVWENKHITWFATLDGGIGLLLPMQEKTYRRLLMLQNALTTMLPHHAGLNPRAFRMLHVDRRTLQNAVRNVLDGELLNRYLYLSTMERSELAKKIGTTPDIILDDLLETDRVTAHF
- Sequence (Q9C0J8 1-410, chain 2 of 4): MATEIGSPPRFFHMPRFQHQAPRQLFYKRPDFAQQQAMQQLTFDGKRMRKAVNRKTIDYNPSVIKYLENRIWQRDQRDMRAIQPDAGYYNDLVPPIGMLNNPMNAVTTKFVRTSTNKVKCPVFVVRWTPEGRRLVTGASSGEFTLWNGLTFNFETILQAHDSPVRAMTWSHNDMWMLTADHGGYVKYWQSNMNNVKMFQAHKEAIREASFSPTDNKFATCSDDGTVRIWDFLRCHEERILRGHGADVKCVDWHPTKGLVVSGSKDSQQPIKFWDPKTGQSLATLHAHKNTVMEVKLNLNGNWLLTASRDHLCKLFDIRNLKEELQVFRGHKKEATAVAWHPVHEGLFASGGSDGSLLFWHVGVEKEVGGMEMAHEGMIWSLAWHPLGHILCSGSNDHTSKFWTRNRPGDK
- Sequence (O95639 other isoform, or with tags, fused parts or gaps |||, chain 3 of 4): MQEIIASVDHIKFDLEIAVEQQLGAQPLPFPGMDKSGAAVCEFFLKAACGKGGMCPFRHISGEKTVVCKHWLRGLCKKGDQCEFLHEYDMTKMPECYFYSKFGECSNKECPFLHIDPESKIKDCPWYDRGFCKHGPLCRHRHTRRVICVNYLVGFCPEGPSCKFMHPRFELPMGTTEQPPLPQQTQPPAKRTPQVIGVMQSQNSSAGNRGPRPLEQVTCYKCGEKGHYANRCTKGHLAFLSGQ
- Sequence (Q6UN15 other isoform, or with tags, fused parts or gaps |||, chain 4 of 4): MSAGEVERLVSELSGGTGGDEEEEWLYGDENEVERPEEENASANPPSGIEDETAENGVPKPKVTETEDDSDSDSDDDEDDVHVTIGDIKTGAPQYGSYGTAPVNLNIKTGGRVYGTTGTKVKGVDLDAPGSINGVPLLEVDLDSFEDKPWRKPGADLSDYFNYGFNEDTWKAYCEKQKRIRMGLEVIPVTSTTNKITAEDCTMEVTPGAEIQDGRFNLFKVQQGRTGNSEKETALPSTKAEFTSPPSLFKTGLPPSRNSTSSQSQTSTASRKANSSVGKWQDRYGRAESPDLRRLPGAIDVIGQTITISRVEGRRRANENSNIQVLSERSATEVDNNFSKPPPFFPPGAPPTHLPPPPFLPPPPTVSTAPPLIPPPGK
- Experiment description: fluorescence polarization; error 0.09 in text, 0.90 in Table 2; 20 mM Tris pH 7.5, 150 mM NaCl, 1 mM DTT, 0.05% Tween 20, 25 C, 0.1 nM labelled RNA
- Test parameters: protein: recombinant;recombinant;recombinant;recombinant; tags: His6 (438B vector; Ni-NTA and Streptactin purified);;; copies: 1;1;1;1; label: 5' Atto532
Attribute measured: Kd (pM)

In [3]: df
Out[3]:
                                     binder  unit_descriptor  numeric_value
0  CACACAAUAAAGGCAA (ssRNA) [L3 PAS RNA wild-type (AAUAAA)]               pM            650
